# Tested on: P-gp and BCRP
# test.summary: in vitro
# measurement.parameters: human, Caco-2, pH 7.4, AP-to-BL Papp, C2BBe1 cells, 10 μM probe, batch used with Sol_1, Sol_3, and Sol_4; single replicates
property.measured: Papp A→B at 10 µM

Short answer for Nc1nc(Cl)nc2c1ncn2[C@H]1C[C@H](O)[C@@H](CO)O1 [cladribine] : Papp A→B at 10 µM was 0.37 ×10⁻⁶ cm/s

====

# test.target: UniProtKB P20813
# Sequence (P20813 1-491): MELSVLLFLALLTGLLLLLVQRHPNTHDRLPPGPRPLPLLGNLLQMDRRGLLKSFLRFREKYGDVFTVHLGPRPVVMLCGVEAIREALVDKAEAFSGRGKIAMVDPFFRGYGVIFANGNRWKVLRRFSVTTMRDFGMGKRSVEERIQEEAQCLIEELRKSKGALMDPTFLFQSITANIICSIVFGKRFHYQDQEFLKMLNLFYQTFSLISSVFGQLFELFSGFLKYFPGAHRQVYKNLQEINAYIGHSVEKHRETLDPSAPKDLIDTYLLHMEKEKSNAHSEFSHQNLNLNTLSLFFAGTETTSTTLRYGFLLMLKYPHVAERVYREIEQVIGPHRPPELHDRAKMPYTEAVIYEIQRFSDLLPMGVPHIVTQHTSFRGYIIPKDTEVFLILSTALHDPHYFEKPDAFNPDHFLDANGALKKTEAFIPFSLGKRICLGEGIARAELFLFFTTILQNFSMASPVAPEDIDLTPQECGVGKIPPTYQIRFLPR
# test.summary: Time-dependent inhibition (TDI) of CYP in HLM, 30 min pre-incubation ±NADPH
# measurement.parameters: microsomes, pH 7.4, % of Control Enzyme Activity, +NADPH 30 min, 10.0 μM
property.measured: activity at 30 min, 10 µM (%)
Please respond with the number in % and leave the unit unwritten.

Measured on UniProtKB P20813, "S=P(N1CC1)(N1CC1)N1CC1" has a documented activity at 30 min, 10 µM of 18.3

====

# Tested on: P-gp and BCRP
# test.summary: P-gp and BCRP substrate assessment, bidirectional permeability in C2BBe1 cells
# measurement.parameters: human, Caco-2, pH 7.4, probe digoxin (P-gp), cladribine (BCRP), BL-to-AP Papp, C2BBe1 cells, 10 μM probe, batch used with Sol_1, Sol_3, and Sol_4; Average
property.measured: Papp B→A at 10 µM (nm/s)
Please respond with the number in nm/s and leave the unit unwritten.

Short answer for "C[C@H]1O[C@@H](O[C@H]2[C@@H](O)C[C@H](O[C@H]3[C@@H](O)C[C@H](O[C@H]4CC[C@@]5(C)[C@H](CC[C@@H]6[C@@H]5C[C@@H](O)[C@]5(C)[C@@H](C7=CC(=O)OC7)CC[C@]65O)C4)O[C@@H]3C)O[C@@H]2C)C[C@H](O)[C@@H]1O" : Papp B→A at 10 µM was 126

====

# Test system: P-gp and BCRP
# test.summary: in vitro
# measurement.parameters: human, Caco-2, pH 7.4, AP-to-BL Papp, C2BBe1 cells, 10 μM probe, batch used with Sol_1, Sol_3, and Sol_4; Average
property.measured: Papp A→B at 10 µM (×10⁻⁶ cm/s)
Please respond with the number in ×10⁻⁶ cm/s and leave the unit unwritten.

Short answer for "Nc1nc(Cl)nc2c1ncn2[C@H]1C[C@H](O)[C@@H](CO)O1" : Papp A→B at 10 µM was 0.5
